test system: Rattus norvegicus; assay: % excretion of radioiron determined in urine of rat followed by intravenous injection of transferrin preincubated with 10 mg of chelating agent; assay type: ADME, organism-based; settings: in vivo
metric_name: Distribution (%)

Some solved cases for reference:
Recorded result, COc1ccc(COC(=O)N/N=C/c2c(CO)cnc(C)c2O)cc1 , Distribution: 0.02

Recorded result, CC(=O)N(O)CCCCCNC(=O)CCC(=O)N(O)CCCCCNC(=O)CCC(=O)N(O)CCCCCN , Distribution: 62.9

Recorded result, Cc1ncc(CO)c(/C=N/NC(=O)c2ccnc3ccccc23)c1O , Distribution: 0.4

P. Cc1ncc(CO)c(/C=N/NC(=O)c2cccnc2)c1O
Q. CC(=O)OCc1cnc(C)c(O)c1/C=N\NC(=O)c1ccncc1
Which value of Distribution is numerically greater: that of P or that of Q ? Pick one and reply with its label.
Q
(Q: 0.8%, P: 0.3%)

---

test system: Rattus norvegicus; assay: % distribution of the radioiron in rat spleen followed by intravenous injection of chelating agent; format: ADME, organism-based; conditions: in vivo
metric_name: Distribution (%)

Recorded result, CC(=O)N(O)CCCCCNC(=O)CCC(=O)N(O)CCCCCNC(=O)CCC(=O)N(O)CCCCCN , Distribution: 0.4

Recorded result, Cc1ncc(CO)c(/C=N/NC(=O)c2ccncc2)c1O [PYRIDOXAL ISONICOTINOYL HYDRAZONE] , Distribution: 0.5

Recorded result, Cc1ncc(CO)c(/C=N/NC(=O)OC(C)(C)C)c1O , Distribution: 0.55

Recorded result, Cc1ncc(CO)c(/C=N/Nc2nc(-c3ccccc3)cs2)c1O , Distribution: 0.6

Recorded result, Cc1csc(N/N=C/c2c(CO)cnc(C)c2O)n1 , Distribution: 0.8

a. CCOC(=O)N/N=C/c1c(CO)cnc(C)c1O
b. Cc1ncc(CO)c(/C=N/NC(N)=O)c1O
// returns a or b , whichever has the lower Distribution Pick one and reply with its label.
a
(a: 0.7%, b: 1%)

---

test system: Rattus norvegicus; assay: % distribution of the radioiron in rat liver followed by intravenous injection of chelating agent; assay type: ADME, organism-based; settings: in vivo
metric_name: Distribution (%)

Distribution of Cc1ncc(CO)c(/C=N/NC(=O)OC(C)(C)C)c1O , assay on Rattus norvegicus, is 63.2

Distribution of Cc1ncc(CO)c(/C=N/Nc2nc(-c3ccccc3)cs2)c1O , assay on Rattus norvegicus, is 66.7

Distribution of Cc1csc(N/N=C/c2c(CO)cnc(C)c2O)n1 , assay on Rattus norvegicus, is 60.2

Distribution of CC(=O)N(O)CCCCCNC(=O)CCC(=O)N(O)CCCCCNC(=O)CCC(=O)N(O)CCCCCN [DEFEROXAMINE] , assay on Rattus norvegicus, is 71.3

Distribution of Cc1ncc(CO)c(/C=N/NC(=O)c2ccncc2)c1O [PYRIDOXAL ISONICOTINOYL HYDRAZONE] , assay on Rattus norvegicus, is 78.7

Distribution of CCOC(=O)N/N=C/c1c(CO)cnc(C)c1O , assay on Rattus norvegicus, is 63.8

Distribution of Cc1ncc(CO)c(/C=N/NC(N)=O)c1O , assay on Rattus norvegicus, is 82.4

---

system: Rattus norvegicus; assay: % distribution of the radioiron in rat spleen followed by intravenous injection of transferrin pre-incubated with 10 mg of chelating agent; format: ADME, organism-based; conditions: in vivo
metric_name: Distribution (%)

Some solved cases for reference:
Recorded result, Cc1ncc(CO)c(/C=N/NC(=O)c2cccnc2)c1O , Distribution: 0.9

Recorded result, CC(=O)N(O)CCCCCNC(=O)CCC(=O)N(O)CCCCCNC(=O)CCC(=O)N(O)CCCCCN , Distribution: 0.2

P. Cc1ncc(CO)c(/C=N/NC(=O)c2ccnc3ccccc23)c1O
Q. Cc1ncc(CO)c(/C=N/NC(=O)c2ccncc2)c1O [PYRIDOXAL ISONICOTINOYL HYDRAZONE]
// returns P or Q , whichever has the lower Distribution Pick one and reply with its label.
Q
